Listing of entries alongside the reported mean tumor volume.
tested on: human breast cancer ZR-75-1 cell xenograft tumor; assay: Anti-tumor effect in ER+KAT6high breast cancer cell xenograft tumor model (Test Example 6); type: in vivo, Balb/c nude mice; conditions: 0.3 mg/kg PO QD, day 34
API: value field is a number in mm^3; no unit string.

Q. Which mean tumor volume reading was recorded for the compound COc1ccc2c(c1S(=O)(=O)Nc1noc3cc(Cn4cccn4)c(F)c(OC)c13)OCCCN2C ?
A. 27

Q. Next compound up: COc1ccc2c(c1S(=O)(=O)Nc1noc3cc(Cn4cccn4)c(F)c(OC)c13)OCCCO2
A. 119

Q. Next compound up: COc1ccc2c(c1S(=O)(=O)Nc1noc3cc(Cn4cccn4)c(F)c(OC)c13)OCCC2=O
A. 25

Q. Next compound up: COc1ccccc1S(=O)(=O)Nc1noc2cc(Cn3cccn3)cc(OC)c12 [PF-8144, reference compound]
A. 220

---

experiment: Pharmacokinetics in SD (Sprague Dawley) rats; format: in vivo; settings: rat, plasma, iv, female SD rats, i.v. 1 mg/kg, read-out: Vdss (apparent volume of distribution)
Binarize Vd at 0.2 L/kg; below is TRUE, at or above is FALSE.

# compound, group
rows = [
    ("COc1ccc2c(c1S(=O)(=O)Nc1noc3cc(Cn4cccn4)c(F)c(OC)c13)OCCO2 [Compound 28]", "FALSE"),
]

Q. For COc1ccc2c(c1S(=O)(=O)Nc1noc3cc(Cn4cccn4)c(F)c(OC)c13)OCC=C2 [Compound 101] , is the recorded Vd below the cut-off of 0.2 L/kg?
A. FALSE

Q. Next compound up: COc1ccc2c(c1S(=O)(=O)Nc1noc3cc(Cn4cccn4)c(F)c(OC)c13)OCCC2=O [Compound 42]
A. FALSE

Q. Next compound up: COc1ccc2c(c1S(=O)(=O)Nc1noc3cc(Cn4cccn4)c(F)c(OC)c13)OCCN2C [Compound 109]
A. TRUE

Q. Next compound up: COc1ccccc1S(=O)(=O)Nc1noc2cc(Cn3cccn3)cc(OC)c12 [PF-8144, reference compound]
A. TRUE

---

Test system: human breast cancer ZR-75-1 cell xenograft tumor
Assay: Anti-tumor effect in ER+KAT6high breast cancer cell xenograft tumor model (Test Example 6)
Type: in vivo, Balb/c nude mice
Conditions: 0.3 mg/kg PO QD, day 34
Procedure: Test Example 6: Anti-Tumor Effects of Test Compounds in ER^+KAT6^high Breast Cancer Cell-Xenograft Tumor Model […] • 1. […] When the cell saturation reached 80%-90% and the quantity met the requirement, the cells were harvested, counted, and inoculated. • 2. […] Tumor diameters were measured twice weekly using a vernier caliper. The tumor volume was calculated using the following formula: V=0.5a×b^2, where a and b represent the long diameter and short diameter of the tumor, respectively. • 6. […]
measurement.label: T/C (%)
API: value field is a number in %; no unit string.

// below: answered compounds
# compound, measurement.label, value
rows = [
    ("COc1ccccc1S(=O)(=O)Nc1noc2cc(Cn3cccn3)cc(OC)c12 [PF-8144, reference compound]", "T/C", 19.5),
    ("COc1ccc2c(c1S(=O)(=O)Nc1noc3cc(Cn4cccn4)c(F)c(OC)c13)OCCC2=O", "T/C", 2.2),
]

Q. Which T/C reading was recorded for the compound COc1ccc2c(c1S(=O)(=O)Nc1noc3cc(Cn4cccn4)c(F)c(OC)c13)OCCCN2C ?
A. 2.4

Q. Next compound up: COc1ccc2c(c1S(=O)(=O)Nc1noc3cc(Cn4cccn4)c(F)c(OC)c13)OCCCO2
A. 10.5

Cited source: patent US20260174778A1
